Source listed as the supplement of paper PMC10567573.

B1: BCL2L13 (parent)
chain: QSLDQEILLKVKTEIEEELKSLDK

Variants of: B1
Assay: protein stability index of a GFP-peptide fusion (GPS, HEK-293T) (PSI 1-6); higher = more stable;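 further: lentivirally expressed fusions sorted by FACS into six bins by GFP to DsRed ratio, PSI derived from sequencing read proportions per bin multiplied by bin number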
Conditions: c terminus: a fixed tail appended
OBSERVED PROPERTY: protein stability index

VARIANT KEY	OBSERVED PROPERTY	READOUT VALUE
L19K	protein stability index	5.19
I15C	protein stability index	5.12
T13W	protein stability index	3.48
V11I	protein stability index	4.19
K12M	protein stability index	1.81
K20Y	protein stability index	4.3
E16Q	protein stability index	5.04
S2R	protein stability index	4.49
S21N	protein stability index	5.38
K24L	protein stability index	4.71
Q5R	protein stability index	4.14
I15F	protein stability index	5.36
E18W	protein stability index	2.8
E14V	protein stability index	3.48
I15P	protein stability index	5.92
K24C	protein stability index	4.53
K20H	protein stability index	4.48
L22R	protein stability index	4.67
L22C	protein stability index	5.34
K20A	protein stability index	5.08
D23H	protein stability index	3.7
I7K	protein stability index	5.51
L9C	protein stability index	5
Q1G	protein stability index	4.67
D23K	protein stability index	4.33
S2W	protein stability index	1.48
S2P	protein stability index	4.71
L9W	protein stability index	4.4
